Hey, just so you know, these numbers are from PubChem BioAssay AID1963830.

Tested on: 922993-354-T-J3-PDC complex spheroid viability
Experiment: Anticancer human tumor 922993-354-T-J3-PDC patient-derived endometrial carcinoma cell line growth inhibition [POLQ]
Details: second compound 0.316 µM; first compound 0.1 µM; stronger effect = lower value
Below, each entry is listed with its recorded viability, T/C.
Just the number in %, nothing appended.

>  <Compound>
COc1ccc([C@@H](O)c2cc(-c3ncnc4cc(N5CCOCC5)ccc34)c(F)cc2Cl)nn1 + Nc1ccc(C#CCN(C(=O)Cc2ncc(C(F)(F)F)cc2C(F)(F)F)c2ccc(F)cc2)nn1

>  <Quantity Name>
viability, T/C

>  <Output Unit>
%

>  <Test Result>
99.2

$$$$
>  <Compound>
O=C(c1cc(Cc2n[nH]c(=O)c3ccccc23)ccc1F)N1CCN(C(=O)C2CC2)CC1 + Cc1cccc(N(C)C(=O)C2C(O)CCN2c2nc(C)cc(C(F)(F)F)c2C#N)c1

>  <Quantity Name>
viability, T/C

>  <Output Unit>
%

>  <Test Result>
108

$$$$
>  <Compound>
COc1cccc2c1C(=O)c1c(O)c3c(c(O)c1C2=O)CC(O)(C(=O)CO)CC3OC1CC(N)C(O)C(C)O1 (stereo not given) + COC1C(OC(N)=O)C(O)C(Oc2ccc3c(O)c(NC(=O)c4ccc(O)c(CC=C(C)C)c4)c(=O)oc3c2C)OC1(C)C

>  <Quantity Name>
viability, T/C

>  <Output Unit>
%

>  <Test Result>
91.9

$$$$

Input COc1cc(C2c3cc4c(cc3C(OC3OC5COC(C)OC5C(O)C3O)C3COC(=O)C23)OCO4)cc(OC)c1O (stereo not given) + Nc1ccc(C#CCN(C(=O)Cc2ncc(C(F)(F)F)cc2C(F)(F)F)c2ccc(F)cc2)nn1 . Output viability, T/C: 105

Short answer for O=C(c1cc(Cc2n[nH]c(=O)c3ccccc23)ccc1F)N1CCN(C(=O)C2CC2)CC1 + Nc1ccc(C#CCN(C(=O)Cc2ncc(C(F)(F)F)cc2C(F)(F)F)c2ccc(F)cc2)nn1 : viability, T/C was 99.5

The recorded viability, T/C for O=C(c1cc(Cc2n[nH]c(=O)c3ccccc23)ccc1F)N1CCN(C(=O)C2CC2)CC1 + COC1C(OC(N)=O)C(O)C(Oc2ccc3c(O)c(NC(=O)c4ccc(O)c(CC=C(C)C)c4)c(=O)oc3c2C)OC1(C)C is 107

viability, T/C reading for CC1COCCN1c1cc(C2(S(C)(=N)=O)CC2)nc(-c2ccnc3[nH]ccc23)n1 (stereo not given) + Cc1cccc(N(C)C(=O)C2C(O)CCN2c2nc(C)cc(C(F)(F)F)c2C#N)c1 : 100

Recorded viability, T/C (compound CC(C)n1c(=O)n(C)c2cnc3cc(F)c(-c4ccc(OCCCN5CCCCC5)nc4)cc3c21 + Cc1cccc(N(C)C(=O)C2C(O)CCN2c2nc(C)cc(C(F)(F)F)c2C#N)c1 ): 109

Field viability, T/C (entry C=CCn1c(=O)c2cnc(Nc3ccc(N4CCN(C)CC4)cc3)nc2n1-c1cccc(C(C)(C)O)n1 + COC1C(OC(N)=O)C(O)C(Oc2ccc3c(O)c(NC(=O)c4ccc(O)c(CC=C(C)C)c4)c(=O)oc3c2C)OC1(C)C ) reads 95.4

Quick note, viability, T/C for CC[C@@]1(O)C(=O)OCc2c1cc1n(c2=O)Cc2cc3c(CN(C)C)c(O)ccc3nc2-1 + Cc1cccc(N(C)C(=O)C2C(O)CCN2c2nc(C)cc(C(F)(F)F)c2C#N)c1 landed at 59.1

###

Tested on: 922993-354-T-J3-PDC complex spheroid viability
Assay: Anticancer human tumor 922993-354-T-J3-PDC cell line growth inhibition [POLQ];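 also: spheroids exposed to the agents for one week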;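 as to viability, T/C: 100% = DMSO vehicle control wells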
Settings: second compound 3.16 µM; first compound 1 µM; stronger effect = lower value
// boundary case: viability, T/C equal to 90% maps to FALSE; strictly smaller maps to TRUE

See these solved cases before continuing.
>  <Molecule>
O=C(c1cc(Cc2n[nH]c(=O)c3ccccc23)ccc1F)N1CCN(C(=O)C2CC2)CC1 + Cc1cccc(N(C)C(=O)C2C(O)CCN2c2nc(C)cc(C(F)(F)F)c2C#N)c1

>  <Category Label>
FALSE

$$$$
>  <Molecule>
O=C(Nc1ccc(O)c(NS(=O)(=O)c2ccc(F)cc2)c1)c1ccc(-c2ccccc2)cc1 + Cc1cccc(N(C)C(=O)C2C(O)CCN2c2nc(C)cc(C(F)(F)F)c2C#N)c1

>  <Category Label>
FALSE

$$$$

Could you please tell me whether viability, T/C recorded for COc1cccc(OCCCN)c1-c1cc(Nc2cnc(C#N)cn2)n[nH]1 + COC1C(OC(N)=O)C(O)C(Oc2ccc3c(O)c(NC(=O)c4ccc(O)c(CC=C(C)C)c4)c(=O)oc3c2C)OC1(C)C is less than 90%?
TRUE

API: query returns whether the molecule falls strictly under 90% in viability, T/C. Query: CCc1cc2c(N3CCc4c(cc(Cn5ccnc5)cc4-c4cn(C)nc4C(F)(F)F)C3=O)ccnc2c(OC)n1 + Nc1ccc(C#CCN(C(=O)Cc2ncc(C(F)(F)F)cc2C(F)(F)F)c2ccc(F)cc2)nn1
FALSE

###

System: 922993-354-T-J3-PDC complex spheroid viability
Assay: Anticancer human tumor 922993-354-T-J3-PDC cell line growth inhibition [POLQ];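 also: spheroids exposed to the agents for one week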;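 as to viability, T/C: 100% = DMSO vehicle control wells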
Settings: second compound 10 µM; first compound 10 µM; stronger effect = lower value
# note: boundary value 50% maps to 0.0; viability, T/C below it maps to 1.0

Would you please look over these solved cases?
>  <Molecule>
CNCc1ccc(-c2[nH]c3cc(F)cc4c3c2CCNC4=O)cc1 + Nc1ccc(C#CCN(C(=O)Cc2ncc(C(F)(F)F)cc2C(F)(F)F)c2ccc(F)cc2)nn1

>  <Category Label>
0.0

$$$$
>  <Molecule>
O=c1[nH]cc(F)c(=O)[nH]1 + COC1C(OC(N)=O)C(O)C(Oc2ccc3c(O)c(NC(=O)c4ccc(O)c(CC=C(C)C)c4)c(=O)oc3c2C)OC1(C)C

>  <Category Label>
1.0

$$$$
>  <Molecule>
CCCS(=O)(=O)Nc1ccc(F)c(C(=O)c2c[nH]c3ncc(-c4ccc(Cl)cc4)cc23)c1F + Cc1cccc(N(C)C(=O)C2C(O)CCN2c2nc(C)cc(C(F)(F)F)c2C#N)c1

>  <Category Label>
0.0

$$$$

Is viability, T/C of CC1COCCN1c1cc(C2(S(C)(=N)=O)CC2)nc(-c2ccnc3[nH]ccc23)n1 (stereo not given) + COC1C(OC(N)=O)C(O)C(Oc2ccc3c(O)c(NC(=O)c4ccc(O)c(CC=C(C)C)c4)c(=O)oc3c2C)OC1(C)C strictly below 50%?
1.0

Field: below-cutoff. Rule: recorded viability, T/C strictly less than 50%. Subject: CC1COCCN1c1cc(C2(S(C)(=N)=O)CC2)nc(-c2ccnc3[nH]ccc23)n1 (stereo not given) + Nc1ccc(C#CCN(C(=O)Cc2ncc(C(F)(F)F)cc2C(F)(F)F)c2ccc(F)cc2)nn1
1.0

###

System: 922993-354-T-J3-PDC complex spheroid viability
Experiment: Anticancer human tumor 922993-354-T-J3-PDC cell line growth inhibition [POLQ];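 also: spheroids exposed to the agents for one week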;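 as to viability, T/C: 100% = DMSO vehicle control wells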
Details: second compound 10 µM; first compound 0.316 µM; stronger effect = lower value
Field: label. Allowed values: T (viability, T/C < 90%) or F (viability, T/C >= 90%).

Consider the worked cases shown below.
>  <Molecule>
O=C(Nc1ccc(O)c(NS(=O)(=O)c2ccc(F)cc2)c1)c1ccc(-c2ccccc2)cc1 + Cc1cccc(N(C)C(=O)C2C(O)CCN2c2nc(C)cc(C(F)(F)F)c2C#N)c1

>  <Category Label>
F

$$$$
>  <Molecule>
C=CCn1c(=O)c2cnc(Nc3ccc(N4CCN(C)CC4)cc3)nc2n1-c1cccc(C(C)(C)O)n1 + Nc1ccc(C#CCN(C(=O)Cc2ncc(C(F)(F)F)cc2C(F)(F)F)c2ccc(F)cc2)nn1

>  <Category Label>
F

$$$$
>  <Molecule>
CCc1cc2c(N3CCc4c(cc(Cn5ccnc5)cc4-c4cn(C)nc4C(F)(F)F)C3=O)ccnc2c(OC)n1 + Cc1cccc(N(C)C(=O)C2C(O)CCN2c2nc(C)cc(C(F)(F)F)c2C#N)c1

>  <Category Label>
F

$$$$

Hello, I'm reviewing records and need to know if viability, T/C of COc1cccc(OCCCN)c1-c1cc(Nc2cnc(C#N)cn2)n[nH]1 + Cc1cccc(N(C)C(=O)C2C(O)CCN2c2nc(C)cc(C(F)(F)F)c2C#N)c1 is below 90%. Could you check?
T

###

Test system: 922993-354-T-J3-PDC complex spheroid viability
Assay: Anticancer human tumor 922993-354-T-J3-PDC cell line growth inhibition [POLQ];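 also: spheroids exposed to the agents for one week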
Conditions: curve of first compound; second compound 3.16 µM
Listed here are molecules together with their documented IC50.

In the examples that follow, each entry is paired with its recorded IC50.
>  <Molecule>
COc1cc2cc(C(=O)CCC(=O)O)sc2cc1OC + Nc1ccc(C#CCN(C(=O)Cc2ncc(C(F)(F)F)cc2C(F)(F)F)c2ccc(F)cc2)nn1

>  <IC50>
> 10 µM

$$$$
>  <Molecule>
O=C(Nc1ccc(O)c(NS(=O)(=O)c2ccc(F)cc2)c1)c1ccc(-c2ccccc2)cc1 + Cc1cccc(N(C)C(=O)C2C(O)CCN2c2nc(C)cc(C(F)(F)F)c2C#N)c1

>  <IC50>
> 10 µM

$$$$

Next:
Lab note: C=CCn1c(=O)c2cnc(Nc3ccc(N4CCN(C)CC4)cc3)nc2n1-c1cccc(C(C)(C)O)n1 + COC1C(OC(N)=O)C(O)C(Oc2ccc3c(O)c(NC(=O)c4ccc(O)c(CC=C(C)C)c4)c(=O)oc3c2C)OC1(C)C gave IC50 of > 1 µM
